# reported solubility; entries follow
assay: Compound solubility in water using in situ salt formation with aqueous HCl; assay type: physicochemical; conditions: aqueous buffer, thermodynamic from solid; water with aqueous HCl, in situ salt formation; started at 10 mg/ml, minimum tested 1 mg/ml; read-out: Final Concentration

Completed entries (count: 4):
COCCOCCOCCOCCOCCOCCOc1ccc(C#CCNCCCNC(=O)c2nc(NC(=O)c3cc(NC(=O)CCNC(=O)c4nc(NC(=O)CCCNC(=O)c5cc(NC(=O)c6nc(NC(=O)CCNC(=O)c7cc(NC(=O)c8nccn8C)cn7C)cn6C)cn5C)cn4C)cn3C)cn2C)cc1 = ≥ 10 mg/mL
Cn1cc(NC(=O)c2nc(NC(=O)CCNC(=O)c3cc(NC(=O)c4nccn4C)cn3C)cn2C)cc1C(=O)NCCCC(=O)Nc1cn(C)c(C(=O)NCCC(=O)Nc2cc(C(=O)Nc3cn(C)c(C(=O)NCCC(=O)N4CCC5(CC4)CNC5)n3)n(C)c2)n1 = ≥ 3.53 mg/mL
CN1CC(C2CCN(C(=O)CCNC(=O)c3nc(NC(=O)c4cc(NC(=O)CCNC(=O)c5nc(NC(=O)CCCNC(=O)c6cc(NC(=O)c7nc(NC(=O)CCNC(=O)c8cc(NC(=O)c9nccn9C)cn8C)cn7C)cn6C)cn5C)cn4C)cn3C)CC2)C1 = ≥ 3.18 mg/mL
Cn1cc(NC(=O)c2nc(NC(=O)CCNC(=O)c3cc(NC(=O)c4nccn4C)cn3C)cn2C)cc1C(=O)NCCCC(=O)Nc1cn(C)c(C(=O)NCCC(=O)Nc2cc(C(=O)Nc3cn(C)c(C(=O)NCCC(=O)N4CCC(C5CNC5)CC4)n3)n(C)c2)n1 = ≥ 3.78 mg/mL

Prompt line: I have this molecule here, `CN(C)CCOCCNC(=O)c1nc(NC(=O)c2cc(NC(=O)CCNC(=O)c3nc(NC(=O)CCCNC(=O)c4cc(NC(=O)c5nc(NC(=O)CCNC(=O)c6cc(NC(=O)c7nccn7C)cn6C)cn5C)cn4C)cn3C)cn2C)cn1C` , and I need its recorded solubility.
Response line: ≥ 1 mg/mL

Prompt line: // query: `Cn1cc(NC(=O)c2nc(NC(=O)CCNC(=O)c3cc(NC(=O)c4nccn4C)cn3C)cn2C)cc1C(=O)NCCCC(=O)Nc1cn(C)c(C(=O)NCCC(=O)Nc2cc(C(=O)Nc3cn(C)c(C(=O)NCCCN4CCOCC4)n3)n(C)c2)n1`
Response line: ≥ 1 mg/mL

Prompt line: Can you check `CCCCn1cc(NC(=O)c2nc(NC(=O)CCNC(=O)c3cc(NC(=O)c4nccn4C)cn3C)cn2C)cc1C(=O)NCC[C@@H](N)C(=O)Nc1cn(C)c(C(=O)NCCC(=O)Nc2cc(C(=O)Nc3cn(C)c(C(=O)NCCC(=O)N4CCN(C)CC4)n3)n(C)c2)n1` next?
Response line: ≥ 10 mg/mL

###

tested on: Immortalized Fuchs endothelial corneal dystrophy cells (F35T); experiment: In vitro foci assay (nuclear foci by FISH with (CAG)10-Cy3 oligonucleotide); type: cell-based; conditions: 48 h treatment, 3000 to 1 nM
Measured IC50 accompanies every entry in the list below.
Field format: number, assumed nM, no unit text.

Prompt line: What value of IC50 on Immortalized Fuchs endothelial corneal dystrophy cells (F35T) does Cn1cc(NC(=O)c2nc(NC(=O)CCNC(=O)c3cc(NC(=O)c4nccn4C)cn3C)cn2C)cc1C(=O)NCCCC(=O)Nc1cn(C)c(C(=O)NCCC(=O)Nc2cc(C(=O)Nc3cn(C)c(C(=O)NCCC(=O)N4CCC5(CC4)CNC5)n3)n(C)c2)n1 [Compound 208] have?
Response line: 186

###

Catalogue of IC50 values
tested on: Immortalized Fuchs endothelial corneal dystrophy cells (F35T); test: In vitro foci assay (nuclear foci by FISH with (CAG)10-Cy3 oligonucleotide); type: cell-based; conditions: 48 h treatment, 3000 to 1 nM
// return numeric value only (unit: µM, not printed)

Solved entries (count: 3):
CN(C)CCOCCNC(=O)c1nc(NC(=O)c2cc(NC(=O)CCNC(=O)c3nc(NC(=O)CCCNC(=O)c4cc(NC(=O)c5nc(NC(=O)CCNC(=O)c6cc(NC(=O)c7nccn7C)cn6C)cn5C)cn4C)cn3C)cn2C)cn1C = 0.065
CN(C)CCCCNC(=O)c1nc(NC(=O)c2cc(NC(=O)CCNC(=O)c3nc(NC(=O)[C@H](N)CCNC(=O)c4cc(NC(=O)c5nc(NC(=O)CCNC(=O)c6cc(NC(=O)c7nccn7C)cn6C)cn5C)cn4C)cn3C)cn2C)cn1C = 1.65
CN1CC2(CCN(C(=O)CCNC(=O)c3nc(NC(=O)c4cc(NC(=O)CCNC(=O)c5nc(NC(=O)CCCNC(=O)c6cc(NC(=O)c7nc(NC(=O)CCNC(=O)c8cc(NC(=O)c9nccn9C)cn8C)cn7C)cn6C)cn5C)cn4C)cn3C)CC2)C1 = 0.213

Prompt line: // query IC50 value for entry `COCCOCCOCCOCCOCCOCCOc1ccc(C#CCNCCCNC(=O)c2nc(NC(=O)c3cc(NC(=O)CCNC(=O)c4nc(NC(=O)CCCNC(=O)c5cc(NC(=O)c6nc(NC(=O)CCNC(=O)c7cc(NC(=O)c8nccn8C)cn7C)cn6C)cn5C)cn4C)cn3C)cn2C)cc1`
Response line: 0.378

###

Recorded pIC50 values for a group of compounds are listed next.
test system: Immortalized Fuchs endothelial corneal dystrophy cells (F35T); test: In vitro foci assay (nuclear foci by FISH with (CAG)10-Cy3 oligonucleotide); format: cell-based; conditions: 48 h treatment, 3000 to 1 nM
Please treat pIC50 as minus the base-10 logarithm of the molar concentration.

Take a look at these entries with their results.
Cn1cc(NC(=O)c2nc(NC(=O)CCNC(=O)c3cc(NC(=O)c4nccn4C)cn3C)cn2C)cc1C(=O)NCCCC(=O)Nc1cn(C)c(C(=O)NCCC(=O)Nc2cc(C(=O)Nc3cn(C)c(C(=O)NCCCN4CCOCC4)n3)n(C)c2)n1 = 6.76
COCCOCCOCCOCCN(CCCNC(=O)c1nc(NC(=O)c2cc(NC(=O)CCNC(=O)c3nc(NC(=O)CCCNC(=O)c4cc(NC(=O)c5nc(NC(=O)CCNC(=O)c6cc(NC(=O)c7nccn7C)cn6C)cn5C)cn4C)cn3C)cn2C)cn1C)CCOCCOCCOCCOC = 6.78
Cn1cc(NC(=O)c2nc(NC(=O)CCNC(=O)c3cc(NC(=O)c4nccn4C)cn3C)cn2C)cc1C(=O)NCCCC(=O)Nc1cn(C)c(C(=O)NCCC(=O)Nc2cc(C(=O)Nc3cn(C)c(C(=O)NCCC(=O)N4CCC(C#CC#CC5CCNCC5)CC4)n3)n(C)c2)n1 = 7.48

Shifting focus to the compound that follows.
Prompt line: Field: pIC50 (Immortalized Fuchs endothelial corneal dystrophy cells (F35T)). Entry: `Cn1cc(NC(=O)c2nc(NC(=O)CCNC(=O)c3cc(NC(=O)c4nccn4C)cn3C)cn2C)cc1C(=O)NCCCC(=O)Nc1cn(C)c(C(=O)NCCC(=O)Nc2cc(C(=O)Nc3cn(C)c(C(=O)NCCC(=O)N4CCC(N5CCNCC5)CC4)n3)n(C)c2)n1`
Response line: 6.05

###

assay: Compound solubility in water using in situ salt formation with aqueous HCl; type: physicochemical; conditions: aqueous buffer, thermodynamic from solid; water with aqueous HCl, in situ salt formation; started at 10 mg/ml, minimum tested 1 mg/ml; read-out: Final Concentration
measuredQuantity: solubility

// known answers, use as guide
CN1CCN(C(=O)CCNC(=O)c2nc(NC(=O)c3cc(NC(=O)CCNC(=O)c4nc(NC(=O)[C@H](N)CCNC(=O)c5cc(NC(=O)c6nc(NC(=O)CCNC(=O)c7cc(NC(=O)c8nccn8C)cn7C)cn6C)cn5C)cn4C)cn3C)cn2C)CC1 = ≥ 10000 µg/mL
CN(C)CCCCNC(=O)c1nc(NC(=O)c2cc(NC(=O)CCNC(=O)c3nc(NC(=O)[C@H](N)CCNC(=O)c4cc(NC(=O)c5nc(NC(=O)CCNC(=O)c6cc(NC(=O)c7nccn7C)cn6C)cn5C)cn4C)cn3C)cn2C)cn1C = ≥ 10000 µg/mL

# input for lookup
Prompt line: If you can, please state the reported solubility value of `COCCOCCOCCOCCN(CCCNC(=O)c1nc(NC(=O)c2cc(NC(=O)CCNC(=O)c3nc(NC(=O)CCCNC(=O)c4cc(NC(=O)c5nc(NC(=O)CCNC(=O)c6cc(NC(=O)c7nccn7C)cn6C)cn5C)cn4C)cn3C)cn2C)cn1C)CCOCCOCCOCCOC` .
Response line: ≥ 10000 µg/mL

###

system: Immortalized Fuchs endothelial corneal dystrophy cells (F35T); assay: In vitro foci assay (nuclear foci by FISH with (CAG)10-Cy3 oligonucleotide); type: cell-based; conditions: 48 h treatment, 3000 to 1 nM
measuredQuantity: pIC50
The read-out pIC50 is expressed as -log10 of concentration in moles per litre.

// below: answered compounds
CN1CCN(C(=O)CCNC(=O)c2nc(NC(=O)c3cc(NC(=O)CCNC(=O)c4nc(NC(=O)[C@H](N)CCNC(=O)c5cc(NC(=O)c6nc(NC(=O)CCNC(=O)c7cc(NC(=O)c8nccn8C)cn7C)cn6C)cn5C)cn4C)cn3C)cn2C)CC1 = 5.78
CN1CC(C2CCN(C(=O)CCNC(=O)c3nc(NC(=O)c4cc(NC(=O)CCNC(=O)c5nc(NC(=O)CCCNC(=O)c6cc(NC(=O)c7nc(NC(=O)CCNC(=O)c8cc(NC(=O)c9nccn9C)cn8C)cn7C)cn6C)cn5C)cn4C)cn3C)CC2)C1 = 6.42
Cn1cc(NC(=O)c2nccn2C)cc1C(=O)NCCC(=O)Nc1cn(C)c(C(=O)Nc2cc(C(=O)NCC[C@@H](N)C(=O)Nc3cn(C)c(C(=O)NCCC(=O)Nc4cc(C(=O)Nc5cn(C)c(C(=O)NCCC(=O)N6CCC(C#CC#CC7CCNCC7)CC6)n5)n(C)c4)n3)n(C)c2)n1 = 6.15
CCCCn1cc(NC(=O)c2nc(NC(=O)CCNC(=O)c3cc(NC(=O)c4nccn4C)cn3C)cn2C)cc1C(=O)NCC[C@@H](N)C(=O)Nc1cn(C)c(C(=O)NCCC(=O)Nc2cc(C(=O)Nc3cn(C)c(C(=O)NCCC(=O)N4CCN(C)CC4)n3)n(C)c2)n1 = 6.62

Prompt line: Item under review: `Cn1cc(NC(=O)c2nc(NC(=O)CCNC(=O)c3cc(NC(=O)c4nccn4C)cn3C)cn2C)cc1C(=O)NCCCC(=O)Nc1cn(C)c(C(=O)NCCC(=O)Nc2cc(C(=O)Nc3cn(C)c(C(=O)NCCC(=O)N4CCC(C5CNC5)CC4)n3)n(C)c2)n1` . Reported pIC50?
Response line: 6.29
